molecular target: ZFP SBS#299 (synthetic); assay: EMSA; details: tags: MBP fusion
Sequence (chain, as listed by the source): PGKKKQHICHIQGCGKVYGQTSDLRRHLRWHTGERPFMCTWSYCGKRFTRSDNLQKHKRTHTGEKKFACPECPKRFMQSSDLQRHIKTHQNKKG
value-type: Kd (µM)
// note: answer is a bare numeric in µM

Q: May I ask what Kd has been recorded for GCTTAGGCA (dsDNA) DNA 1: GCTTAGGCA DNA 2: TGCCTAAGC ?
Ans: 4
